The following compounds are shown together with reported microsomal CLint at 1 μM values.
# measurement description: Metabolic stability evaluation, human liver microsome experiment
# Assay type: in vitro ADME
# cond: liver microsomes, pH 7.4, 1 μM compound, 0.5 mg/mL protein, 37° C.
# Method: Microsomal experiment: human liver microsomes: 0.5 mg/mL, Xenotech; rat liver microsomes: 0.5 mg/mL, Xenotech; mouse liver microsomes: 0.5 mg/mL, Xenotech; coenzyme (NADPH/NADH): 1 mM, Sigma Life Science; magnesium chloride: 5 mM, 100 mM phosphate buffer (pH 7.4). […] Data analysis: The peak areas of the corresponding compounds and internal standard were detected by LC-MS/MS system, and the ratio of the peak areas of the compounds to the internal standard was calculated.
endpoint name: microsomal CLint at 1 μM (µL/min/mg)

Cc1cnc(Nc2ccc(OCCN3CCCC3)cc2)nc1Nc1cccc(S(=O)(=O)NC(C)(C)C)c1 [Fedratinib, reference compound] = 12.5
[2H]C([2H])(Oc1ccc(Nc2ncc(C)c(Nc3cccc(S(=O)(=O)NC(C)(C)C)c3)n2)cc1)C([2H])([2H])N1CCCC1 = 6.8
[2H]C1([2H])N(CCOc2ccc(Nc3ncc(C)c(Nc4cccc(S(=O)(=O)NC(C)(C)C)c4)n3)cc2)C([2H])([2H])C([2H])([2H])C1([2H])[2H] = 11.5

* * *

# measurement description: Metabolic stability evaluation, mouse liver microsome experiment
# Assay type: in vitro ADME
# cond: liver microsomes, pH 7.4, 1 μM compound, 0.5 mg/mL protein, 37° C., read-out: Mouse liver microsome experiment t1/2
endpoint name: half-life at 1 μM

[2H]c1nc(Nc2ccc(OCCN3CCCC3)cc2)nc(Nc2cccc(S(=O)(=O)NC(C)(C)C)c2)c1C([2H])([2H])[2H] = 8 min
[2H]C([2H])([2H])C(C)(NS(=O)(=O)c1cccc(Nc2nc(Nc3ccc(OCCN4CCCC4)cc3)ncc2C)c1)C([2H])([2H])[2H] = 6.7 min
[2H]C1([2H])N(CCOc2ccc(Nc3ncc(C)c(Nc4cccc(S(=O)(=O)NC(C)(C)C)c4)n3)cc2)C([2H])([2H])C([2H])([2H])C1([2H])[2H] = 8.8 min
Cc1cnc(Nc2ccc(OCCN3CCCC3)cc2)nc1Nc1cccc(S(=O)(=O)NC(C)(C)C)c1 [Fedratinib, reference compound] = 5.8 min
[2H]C([2H])(Oc1ccc(Nc2ncc(C)c(Nc3cccc(S(=O)(=O)NC(C)(C)C)c3)n2)cc1)C([2H])([2H])N1CCCC1 = 8.8 min
[2H]C([2H])([2H])C(NS(=O)(=O)c1cccc(Nc2nc(Nc3ccc(OCCN4CCCC4)cc3)ncc2C)c1)(C([2H])([2H])[2H])C([2H])([2H])[2H] = 7.1 min

* * *

# measurement description: Metabolic stability evaluation, rat liver microsome experiment
# Assay type: in vitro ADME
# cond: liver microsomes, pH 7.4, 1 μM compound, 0.5 mg/mL protein, 37° C.
endpoint name: microsomal CLint at 1 μM (µL/min/mg)

[2H]C1([2H])N(CCOc2ccc(Nc3ncc(C)c(Nc4cccc(S(=O)(=O)NC(C)(C)C)c4)n3)cc2)C([2H])([2H])C([2H])([2H])C1([2H])[2H] [Compound T-5] = 77
[2H]C([2H])(Oc1ccc(Nc2ncc(C)c(Nc3cccc(S(=O)(=O)NC(C)(C)C)c3)n2)cc1)C([2H])([2H])N1CCCC1 [Compound T-1] = 73.9
Cc1cnc(Nc2ccc(OCCN3CCCC3)cc2)nc1Nc1cccc(S(=O)(=O)NC(C)(C)C)c1 [Fedratinib, reference compound] = 81.3
[2H]C([2H])([2H])C(C)(NS(=O)(=O)c1cccc(Nc2nc(Nc3ccc(OCCN4CCCC4)cc3)ncc2C)c1)C([2H])([2H])[2H] [Compound T-3] = 80.4
[2H]C([2H])([2H])C(NS(=O)(=O)c1cccc(Nc2nc(Nc3ccc(OCCN4CCCC4)cc3)ncc2C)c1)(C([2H])([2H])[2H])C([2H])([2H])[2H] [Compound T-4] = 76.6

Ref: patent US11384069B2
